- testTarget: T1, RQ peptide (Octet assay of PS621 variants)
- T1 construct: RX… with X = Q
- experimentalProtocol: Octet (BLI), 30 C

| binder | Octet response |
| --- | --- |
| PS1115 (designed binder, Variant of PS621) MHSKFSHAGRICGAKFKVGEPIYRCKECSFDDTCVLCVNCFNPKDHRGHHVYTTICTERNNGICDCGDKEAWNHELFCKAEEG | 9.1 |
| PS1102 (designed binder, Variant of PS621) MHSKFSHAGRICGAKFKVGEPIYRCKECQFDDTCVLCVNCFNPKDHTGHHVYTTICTEFNNGICDCGDKEAWNHTLFCKAEEG | 9.3 |
| PS621 (other, UBR protein (UBR-box) parent of PS1101-PS1122) MHSKFSHAGRICGAKFKVGEPIYRCKECSFDDTCVLCVNCFNPKDHTGHHVYTTICTEFNNGICDCGDKEAWNHTLFCKAEEG | 7.4 |
| PS1105 (designed binder, Variant of PS621) MHSKFSHAGRICGAKFKVGEPIYRCKECSFDDTCVLCVNCFNPKDHTRHHVYTTICTEFNNGICDCGDKEAWNHTLFCKAEEG | 5.9 |
| PS1101 (designed binder, Variant of PS621) MHSKFSHAGRICGAKFKVREPIYRCKECSFDDTCVLCVNCFNPKDHTGHHVYTTICTEFNNGICDCGDKEAWNHTLFCKAEEG | 4.7 |
| PS1120 (designed binder, Variant of PS621) MHSKFSHAGRICGAKFKVGEPIYRCKECSFDDTCVLCVNCFNPKDHTGHHVYTKICTEFNNGICDCGDKEAWNHTLFCKAEEG | 9.5 |
| PS1104 (designed binder, Variant of PS621) MHSKFSHAGRICGAKFKVGEPIYRCKECSFDDTCVLCVNCFNPKDHRGHHVYTTICTEFNNGICDCGDKEAWNHTLFCKAEEG | 9.7 |

Origin of measurements: patent US20240272170A1
